interaction score values by entry
Target: T1, P8-AA
T1 chain: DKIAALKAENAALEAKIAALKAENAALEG
Experiment: two-hybrid library CCmax;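 further: natural log of median RNA to DNA barcode read ratio; higher means stronger binding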
Details: mean of both orientations
Just the number, please.

- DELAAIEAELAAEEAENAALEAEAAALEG [AP1-AA]: -1.49
- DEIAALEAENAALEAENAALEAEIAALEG [P1-AA]: -1.57
- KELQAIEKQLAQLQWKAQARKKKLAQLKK [4H_APH]: -1.89

// below: interaction score requested for another binder
Any idea what interaction score was measured for DKLAAAKAEIAALEAELAANEAKKAALKG [AP8-AA] ? -1.39
